Test: AUC in mouse at 30 mg/kg, po
Assay type: ADME, organism-based
Parameters: dose 30 mg/kg, route oral
Conditions: plasma
ENDPOINT NAME: AUC (µM·h)
All answers are understood in µM·h, so give the number only.

Note to self: AUC recorded for CCCS(=O)(=O)Nc1ccc(F)c(Nc2ccc3ncn(C)c(=O)c3c2)c1Cl was 282

Note to self: AUC recorded for CCCS(=O)(=O)Nc1cccc(Nc2ccc3ncn(C)c(=O)c3c2)c1C#N was 483

----------
Assay: Volume of distribution in mouse
Format: ADME, organism-based
Details: in vivo
So I've got a bunch of molecules here, and I need their Vd values.
All answers are understood in L/kg, so give the number only.

Note to self: Vd recorded for CCCS(=O)(=O)Nc1cccc(Nc2ccc3ncn(C)c(=O)c3c2)c1C#N was 0.25

Note to self: Vd recorded for CCCS(=O)(=O)Nc1ccc(F)c(Nc2ccc3ncn(C)c(=O)c3c2)c1Cl was 0.49
